system: UO-31 renal; assay: NCI tumour cell line growth inhibition, 48 h
Listing of entries alongside the reported TGI.

### Prompt Give reported TGI for Cn1cnc([N+](=O)[O-])c1Sc1nc2ccc([N+](=O)[O-])cc2[nH]1 (UO-31 renal)
### Response 67.6 µM

### Prompt Consider the compound N#Cc1c(N)c(C#N)c2c(c1-c1ccc(Cl)cc1)COc1ccc(F)cc1-2 tested on UO-31 renal; state its TGI.
### Response > 50 µM

### Prompt State measured TGI of the compound N#Cc1cn(-c2c3ccccc3nc3ccccc23)c(=O)[nH]c1=O with UO-31 renal.
### Response 25 µM

### Prompt Report TGI under test system UO-31 renal for N=c1oc2ccccc2cc1C(=O)Nc1nccs1 .
### Response 0.22 µM

### Prompt Quote UO-31 renal TGI for entry COc1cc([N+](=O)[O-])ccc1NC(=O)c1cccc([N+](=O)[O-])c1O .
### Response 56.5 µM

### Prompt Recall the reported TGI of O=C(NC(Cc1ccc(I)cc1)C(=O)O)c1ccc(Cl)cc1 (stereo unspecified) when tested on UO-31 renal.
### Response > 100 µM

### Prompt Retrieve TGI on UO-31 renal; query Cc1[nH]n(-c2ccccc2)c(=O)c1C(N(CCc1ccccc1)C1=NCC(C)S1)(C(F)(F)F)C(F)(F)F (stereo unspecified)
### Response 25.3 µM

### Prompt Given COc1cc2c(cc1O)C1CC(CC3CCCCN31)OC(=O)/C=C\c1ccc(O)c-2c1 (stereo unspecified) , report its TGI on UO-31 renal.
### Response 65 µM

### Prompt Please report the measured TGI for COC1=CC(=O)C2C(C1=O)C(c1ccc(Cl)cc1)[C@@H]2C (stereo partly specified) tested on UO-31 renal.
### Response 63.6 µM

### Prompt Please indicate recorded TGI of CCOC(=O)c1c2ccc(/C=C/c3ccccc3)ccc-2c(C(=O)OCC)c1N measured with UO-31 renal.
### Response > 100 µM

### Prompt Identify measured TGI obtained with UO-31 renal for C[N+](C)(C)CCOP(=O)([O-])OCCNC(=O)c1ccc2ccccc2c1 .
### Response > 100 µM

### Prompt Identify measured TGI obtained with UO-31 renal for COC(CC1(OC)OC(=O)C=C1N)OC (stereo unspecified) .
### Response > 100 µM

### Prompt Param request: TGI | system UO-31 renal | item COc1ccc(/C=C2\CCc3cc(OC)c(OC)cc3C2=O)cc1
### Response > 10 µM

### Prompt Look up and report measured TGI (UO-31 renal) for the following compound: CCCCCCSc1nc(COC(=O)NC)c(COC(=O)NC)n1C
### Response > 100 µM

### Prompt Report TGI from UO-31 renal testing of O=C(/C=C/c1ccccc1)OCC1=C[C@@H](O)[C@@H]2C=CO[C@@H](OC3OC(CO)C(O)C(O)C3O)[C@H]12 (stereo partly specified)
### Response > 100 µM

### Prompt Recall the reported TGI of CC[C@@]1(O)C(=O)NCc2c1cc1n(c2=O)Cc2cc3c(NC(C)=O)cccc3nc2-1 when tested on UO-31 renal.
### Response > 100 µM

### Prompt Given NC(=O)c1cc([N+](=O)[O-])cc([N+](=O)[O-])c1 , report its TGI on UO-31 renal.
### Response > 100 µM

### Prompt Print UO-31 renal TGI for CSc1nc(Br)nc2ncn(C3CC(Oc4ccc(C)cc4)C(COc4ccc(C)cc4)O3)c12 (stereo unspecified) .
### Response 75.7 µM

### Prompt Output reported TGI of the compound COC(=O)N/N=C(/c1nc2ccc([N+](=O)[O-])cc2[nH]c1=O)C(O)c1ccc(OC)c(OC)c1 (stereo unspecified) on UO-31 renal.
### Response > 100 µM

### Prompt Write TGI of N#CC1C(=O)NC(=O)C1=O (stereo unspecified) ; system used: UO-31 renal
### Response > 100 µM

### Prompt Write down the reported TGI (system: UO-31 renal) of O=c1c2ccccc2nc2sc(/N=C/C=C/c3ccccc3)nn12
### Response > 100 µM

Just for reference, PubChem BioAssay (NCI) is where these values come from.
